These data points were gathered from EPA's aquatic toxicity sets.

Test system: Daphnia magna
Test Name: 48 h LC50 (-log10 mol/L); higher = more toxic
Listed next: entries and their corresponding 48 h LC50 (-log10 mol/L).
Respond with the number and no other words.

Consider the following illustrative entries.
CSc1nc(N)nc(NC(C)(C)C)n1: 4.29
COc1cccc(N)c1: 5.64
CC(C)N(C(=O)SCC(Cl)=C(Cl)Cl)C(C)C: 6.46
CC(C)=O: 0.673
O=CCCCC=O: 3.79
CCCCCC: 4.34

### Prompt Name the recorded 48 h LC50 (-log10 mol/L) for `COc1cccc(O)c1` .
### Response 3.48

### Prompt Another: `CCNCC`
### Response 3.12

### Prompt Another: `COC(=O)Nc1cccc(OC(=O)Nc2cccc(C)c2)c1`
### Response 4.65

### Prompt Another: `CN(C)C(=O)Nc1ccc(Oc2ccc(Cl)cc2)cc1`
### Response 4.99

###

Tested on: Tetrahymena pyriformis
Test Name: 48 h IGC50 (-log10 mol/L); higher = more toxic
Decide using 48 h IGC50 (-log10 mol/L): a value greater than or equal to 2 is met, a smaller one is not met.

Take a look at these entries with their results.
O=Cc1ccc(Oc2ccccc2)cc1: met
O=[N+]([O-])c1cc(F)cc(I)c1: met
Cc1nccnc1C: met
O=C(O)c1cc(Cl)ccc1Cl: met
N#Cc1cccs1: met
Cc1ccc(C)o1: met
CC(=O)c1cc(C)c(C)cc1O: met
NCCCCCO: not met
CC(C)(C)c1ccc(O)c(N)c1: met
CCOC(=O)C(C)CC (stereo unspecified): met

### Prompt Identify whether the reported 48 h IGC50 (-log10 mol/L) of the following molecule is 2 or greater: `CCCCCCCC#N`
### Response met

### Prompt Another: `Cc1ccncc1C`
### Response met

### Prompt Another: `CS(C)(=O)=O`
### Response not met

### Prompt Another: `O=[N+]([O-])c1ccccc1O`
### Response met

### Prompt Another: `O=Cc1ccc([N+](=O)[O-])s1`
### Response met

### Prompt Another: `Nc1ccccc1`
### Response met

### Prompt Another: CCC(C)N (stereo unspecified)
### Response met

### Prompt Another: `CC(C)(C)c1cccc(O)c1`
### Response met

###

Tested on: Tetrahymena pyriformis
Test Name: 48 h IGC50 (-log10 mol/L); higher = more toxic
Decide using 48 h IGC50 (-log10 mol/L): a value greater than or equal to 3 is 1.0, a smaller one is 0.0.

Take a look at these entries with their results.
Cc1ccc(C)c(O)c1C: 1.0
CCCCCCCC(C)=O: 1.0
CCOC(=O)c1ccc(O)cc1: 1.0

### Prompt Identify whether the reported 48 h IGC50 (-log10 mol/L) of the following compound is 3 or greater: `O=C(O)CCCCCCC(=O)O`
### Response 0.0

### Prompt Another: `COC(=O)c1ccc([N+](=O)[O-])cc1`
### Response 1.0

### Prompt Another: `CCCCCCCCC=O`
### Response 1.0

### Prompt Another: `CCCCCCOC=O`
### Response 0.0

### Prompt Another: `NC(=O)CI`
### Response 1.0

### Prompt Another: `CC(C)C(=O)O`
### Response 0.0

### Prompt Another: `CCCCCCCN`
### Response 1.0
